Each entry below carries its measured IC50, system: Platelet-derived growth factor receptor alpha (Homo sapiens).
Sequence (P16234 whole entry): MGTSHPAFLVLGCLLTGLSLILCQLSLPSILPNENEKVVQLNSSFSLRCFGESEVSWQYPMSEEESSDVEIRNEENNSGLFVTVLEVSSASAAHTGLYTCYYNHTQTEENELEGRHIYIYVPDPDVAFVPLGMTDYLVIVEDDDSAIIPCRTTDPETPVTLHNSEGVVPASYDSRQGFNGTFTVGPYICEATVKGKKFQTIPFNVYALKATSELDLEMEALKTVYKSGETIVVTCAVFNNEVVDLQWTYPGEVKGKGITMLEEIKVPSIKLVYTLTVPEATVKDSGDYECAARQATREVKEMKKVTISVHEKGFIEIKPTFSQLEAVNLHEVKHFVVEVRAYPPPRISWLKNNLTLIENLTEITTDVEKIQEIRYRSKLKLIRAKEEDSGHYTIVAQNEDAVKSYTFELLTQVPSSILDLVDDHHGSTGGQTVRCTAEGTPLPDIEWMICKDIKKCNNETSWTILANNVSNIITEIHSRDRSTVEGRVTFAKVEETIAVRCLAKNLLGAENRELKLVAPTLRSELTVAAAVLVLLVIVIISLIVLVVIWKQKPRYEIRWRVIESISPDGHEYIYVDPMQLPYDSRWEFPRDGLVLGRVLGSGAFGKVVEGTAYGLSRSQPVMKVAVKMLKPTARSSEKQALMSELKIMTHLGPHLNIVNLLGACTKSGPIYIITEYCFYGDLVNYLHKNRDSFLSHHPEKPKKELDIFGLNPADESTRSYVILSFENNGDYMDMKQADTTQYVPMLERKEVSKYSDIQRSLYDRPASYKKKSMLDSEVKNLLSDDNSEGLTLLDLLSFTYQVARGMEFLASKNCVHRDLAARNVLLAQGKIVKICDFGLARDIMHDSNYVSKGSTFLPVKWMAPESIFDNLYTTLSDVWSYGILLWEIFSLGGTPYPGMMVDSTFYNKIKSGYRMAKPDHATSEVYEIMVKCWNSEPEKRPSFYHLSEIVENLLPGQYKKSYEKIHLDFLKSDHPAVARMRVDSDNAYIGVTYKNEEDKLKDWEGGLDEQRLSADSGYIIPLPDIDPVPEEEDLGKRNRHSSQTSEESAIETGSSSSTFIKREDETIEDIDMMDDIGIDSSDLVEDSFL
Please state the figure in nM; there is no need to write the unit.

CC(C)Nc1c(C(N)=O)nnc2cc(N3CCOCC3)ccc12    22

Here's the next entry for you.
Any idea what IC50 came out for `CC(C)Nc1c(C(N)=O)nnc2cc(-c3ccc(S(C)(=O)=O)cc3)ccc12` on Platelet-derived growth factor receptor alpha (Homo sapiens)?
262

====

- experimentalSystem: Serine/threonine-protein kinase 16 (Homo sapiens)
- assayComment: Inhibition of STK16 (unknown origin) at 10 uM relative to control
So basically: inhibition at 80% or higher? That is Satisfied. Lower than 80%? That is Not satisfied.

Study these solved cases before continuing.
CC(C)Nc1c(C(N)=O)nnc2cc(-c3ccncc3)ccc12    Satisfied
CC(C)Nc1c(C(N)=O)nnc2cc(N3CCOCC3)ccc12    Not satisfied
CC(C)Nc1c(C(N)=O)nnc2ccc(-c3ccncc3)cc12    Satisfied
CC(C)Nc1c(C(N)=O)nnc2ccc(-c3cn[nH]c3)cc12    Satisfied
CS(=O)(=O)c1ccc(-c2ccc3c(NC4CCC4)c(C(N)=O)nnc3c2)cc1    Not satisfied

I'd appreciate it if you could say whether `CC(C)Nc1c(C(N)=O)cnc2cc(-c3ccc(S(C)(=O)=O)cc3)ccc12` has inhibition at least equal to 80%.
Not satisfied

====

- experimentalSystem: Serine/threonine-protein kinase 3 (Homo sapiens)
- assayComment: Inhibition of STK3 (unknown origin) at 10 uM relative to control
The following compounds are listed with their measured inhibition values.
Kindly answer with a numeric value in %, unit omitted.

CC(C)Nc1c(C(N)=O)cnc2cc(-c3ccc(S(C)(=O)=O)cc3)ccc12    100
CS(=O)(=O)c1ccc(-c2ccc3c(NC4CCC4)c(C(N)=O)nnc3c2)cc1    66
CC(C)Nc1c(C(N)=O)nnc2cc(N3CCOCC3)ccc12    42

Fill in: inhibition of `CC(C)Nc1c(C(N)=O)nnc2ccc(-c3ccncc3)cc12` is ___
99

Quick one: inhibition of `CC(C)Nc1c(C(N)=O)nnc2ccc(-c3cn[nH]c3)cc12` ?
100

Which inhibition is reported for this compound? `C[C@@H](Nc1c(C(N)=O)nnc2cc(-c3ccc(S(C)(=O)=O)cc3)ccc12)C1CC1`
91

====

- experimentalSystem: Platelet-derived growth factor receptor alpha (Homo sapiens)
- assayComment: Inhibition of PDGFRalpha (unknown origin) at 10 uM relative to control
experimentalReadout: inhibition (%)
Please reply with the bare figure in % and do not write the unit itself.

Guide cases for inhibition, answers given:
CC(C)Nc1c(C(N)=O)cnc2cc(-c3ccc(S(C)(=O)=O)cc3)ccc12    98
CS(=O)(=O)c1ccc(-c2ccc3c(NC4CCC4)c(C(N)=O)nnc3c2)cc1    94
CC(C)Nc1c(C(N)=O)nnc2cc(N3CCOCC3)ccc12    98
CC(C)Nc1c(C(N)=O)nnc2ccc(-c3ccncc3)cc12    100
C[C@@H](Nc1c(C(N)=O)nnc2cc(-c3ccc(S(C)(=O)=O)cc3)ccc12)C1CC1    93

Now look at this entry.
Sample `CC(C)Nc1c(C(N)=O)nnc2ccc(-c3cn[nH]c3)cc12` — what was its inhibition?
101

====

- experimentalSystem: Proto-oncogene tyrosine-protein kinase receptor Ret (Homo sapiens)
- assayComment: Inhibition of RET (unknown origin) at 10 uM relative to control
experimentalReadout: inhibition (%)
Write it as a number; the unit % goes unstated.

API: value(readout=inhibition, system=Proto-oncogene tyrosine-protein kinase receptor Ret (Homo sapiens)) for record `CC(C)Nc1c(C(N)=O)nnc2ccc(-c3cn[nH]c3)cc12`
99

// map `C[C@@H](Nc1c(C(N)=O)nnc2cc(-c3ccc(S(C)(=O)=O)cc3)ccc12)C1CC1` to recorded inhibition (system: Proto-oncogene tyrosine-protein kinase receptor Ret (Homo sapiens))
57

# returns recorded inhibition (system: Proto-oncogene tyrosine-protein kinase receptor Ret (Homo sapiens)) for `CC(C)Nc1c(C(N)=O)nnc2cc(-c3ccncc3)ccc12`
96

Form field - read-out: inhibition; system: Proto-oncogene tyrosine-protein kinase receptor Ret (Homo sapiens); submitted item: `CC(C)Nc1c(C(N)=O)nnc2ccc(-c3ccncc3)cc12`
93

Report inhibition for `CS(=O)(=O)c1ccc(-c2ccc3c(NC4CCC4)c(C(N)=O)nnc3c2)cc1` tested on Proto-oncogene tyrosine-protein kinase receptor Ret (Homo sapiens).
62

Query inhibition on Proto-oncogene tyrosine-protein kinase receptor Ret (Homo sapiens) for `CC(C)Nc1c(C(N)=O)nnc2cc(N3CCOCC3)ccc12`
83

Under Proto-oncogene tyrosine-protein kinase receptor Ret (Homo sapiens): inhibition value of `CC(C)Nc1c(C(N)=O)cnc2cc(-c3ccc(S(C)(=O)=O)cc3)ccc12` ?
73

====

- experimentalSystem: Tyrosine-protein kinase ABL1 (Homo sapiens) (UniProt P00519)
- Sequence (P00519 whole entry): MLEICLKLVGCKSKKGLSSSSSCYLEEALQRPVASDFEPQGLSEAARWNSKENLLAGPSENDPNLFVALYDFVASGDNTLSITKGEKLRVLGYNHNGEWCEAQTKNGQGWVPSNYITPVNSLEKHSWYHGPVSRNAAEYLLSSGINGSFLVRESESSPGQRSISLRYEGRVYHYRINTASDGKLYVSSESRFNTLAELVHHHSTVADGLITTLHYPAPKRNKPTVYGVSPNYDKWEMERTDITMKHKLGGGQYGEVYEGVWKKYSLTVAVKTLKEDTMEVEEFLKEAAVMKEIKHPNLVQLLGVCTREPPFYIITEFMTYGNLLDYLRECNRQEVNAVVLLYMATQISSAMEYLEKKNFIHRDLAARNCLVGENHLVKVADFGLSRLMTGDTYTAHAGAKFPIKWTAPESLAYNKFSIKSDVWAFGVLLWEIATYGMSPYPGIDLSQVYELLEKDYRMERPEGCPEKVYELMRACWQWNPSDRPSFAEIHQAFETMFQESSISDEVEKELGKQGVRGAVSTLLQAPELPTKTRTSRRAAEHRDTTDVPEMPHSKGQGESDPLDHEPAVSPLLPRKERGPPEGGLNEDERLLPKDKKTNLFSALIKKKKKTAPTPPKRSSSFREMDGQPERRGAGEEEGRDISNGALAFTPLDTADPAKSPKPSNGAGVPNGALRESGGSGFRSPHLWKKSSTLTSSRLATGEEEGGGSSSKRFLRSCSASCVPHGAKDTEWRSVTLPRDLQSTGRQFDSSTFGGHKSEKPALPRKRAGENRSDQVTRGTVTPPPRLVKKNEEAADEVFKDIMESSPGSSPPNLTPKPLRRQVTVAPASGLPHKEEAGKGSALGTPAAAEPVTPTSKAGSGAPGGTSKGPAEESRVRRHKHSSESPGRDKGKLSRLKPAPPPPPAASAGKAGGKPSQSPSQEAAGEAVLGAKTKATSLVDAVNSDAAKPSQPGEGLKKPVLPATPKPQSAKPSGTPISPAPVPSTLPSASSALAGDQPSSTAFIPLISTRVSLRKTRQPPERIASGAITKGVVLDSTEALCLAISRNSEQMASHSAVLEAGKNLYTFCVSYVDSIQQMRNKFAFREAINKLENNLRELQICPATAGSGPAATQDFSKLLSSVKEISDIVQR
- assayComment: Inhibition of ABL1 (unknown origin) at 10 uM relative to control
If the reported inhibition equals or exceeds 70%, assign TRUE. If not, assign FALSE.

CC(C)Nc1c(C(N)=O)nnc2cc(-c3ccncc3)ccc12    TRUE
CC(C)Nc1c(C(N)=O)nnc2ccc(-c3ccncc3)cc12    TRUE
CC(C)Nc1c(C(N)=O)nnc2cc(N3CCOCC3)ccc12    FALSE
CS(=O)(=O)c1ccc(-c2ccc3c(NC4CCC4)c(C(N)=O)nnc3c2)cc1    FALSE
CC(C)Nc1c(C(N)=O)nnc2ccc(-c3cn[nH]c3)cc12    TRUE

In the following, a different molecule is considered.
Check the entry `CC(C)Nc1c(C(N)=O)cnc2cc(-c3ccc(S(C)(=O)=O)cc3)ccc12` : does inhibition equal or exceed 70%?
FALSE

====

- experimentalSystem: Calcium/calmodulin-dependent protein kinase type II subunit alpha (Homo sapiens)
- assayComment: Inhibition of CAMK2alpha (unknown origin) at 10 uM relative to control
The following compounds are listed with their measured inhibition values.
API: value field is a number in %; no unit string.

# count of solved cases: 6
CC(C)Nc1c(C(N)=O)nnc2ccc(-c3cn[nH]c3)cc12    92
CC(C)Nc1c(C(N)=O)cnc2cc(-c3ccc(S(C)(=O)=O)cc3)ccc12    0
CC(C)Nc1c(C(N)=O)nnc2cc(-c3ccncc3)ccc12    14
CC(C)Nc1c(C(N)=O)nnc2cc(N3CCOCC3)ccc12    17
CC(C)Nc1c(C(N)=O)nnc2ccc(-c3ccncc3)cc12    77
C[C@@H](Nc1c(C(N)=O)nnc2cc(-c3ccc(S(C)(=O)=O)cc3)ccc12)C1CC1    15

Form field: reported inhibition of `CS(=O)(=O)c1ccc(-c2ccc3c(NC4CCC4)c(C(N)=O)nnc3c2)cc1`
11

====

- experimentalSystem: UniProt P43405
- assayComment: Inhibition of SYK (unknown origin) at 10 uM relative to control
experimentalReadout: inhibition (%)
Form entry: value (%) — number only.

Study these solved cases before continuing.
CC(C)Nc1c(C(N)=O)nnc2ccc(-c3cn[nH]c3)cc12    97
CS(=O)(=O)c1ccc(-c2ccc3c(NC4CCC4)c(C(N)=O)nnc3c2)cc1    79
CC(C)Nc1c(C(N)=O)nnc2cc(N3CCOCC3)ccc12    81

Sample `C[C@@H](Nc1c(C(N)=O)nnc2cc(-c3ccc(S(C)(=O)=O)cc3)ccc12)C1CC1` — what was its inhibition?
55

Look up inhibition for this compound: `CC(C)Nc1c(C(N)=O)nnc2ccc(-c3ccncc3)cc12`
79

What measured inhibition goes with `CC(C)Nc1c(C(N)=O)cnc2cc(-c3ccc(S(C)(=O)=O)cc3)ccc12` ?
72

Recorded inhibition of `CC(C)Nc1c(C(N)=O)nnc2cc(-c3ccncc3)ccc12` , please.
94

====

- experimentalSystem: Tyrosine-protein kinase Lck (Homo sapiens) (UniProt P06239)
- Sequence (P06239 2-509 limits assumed): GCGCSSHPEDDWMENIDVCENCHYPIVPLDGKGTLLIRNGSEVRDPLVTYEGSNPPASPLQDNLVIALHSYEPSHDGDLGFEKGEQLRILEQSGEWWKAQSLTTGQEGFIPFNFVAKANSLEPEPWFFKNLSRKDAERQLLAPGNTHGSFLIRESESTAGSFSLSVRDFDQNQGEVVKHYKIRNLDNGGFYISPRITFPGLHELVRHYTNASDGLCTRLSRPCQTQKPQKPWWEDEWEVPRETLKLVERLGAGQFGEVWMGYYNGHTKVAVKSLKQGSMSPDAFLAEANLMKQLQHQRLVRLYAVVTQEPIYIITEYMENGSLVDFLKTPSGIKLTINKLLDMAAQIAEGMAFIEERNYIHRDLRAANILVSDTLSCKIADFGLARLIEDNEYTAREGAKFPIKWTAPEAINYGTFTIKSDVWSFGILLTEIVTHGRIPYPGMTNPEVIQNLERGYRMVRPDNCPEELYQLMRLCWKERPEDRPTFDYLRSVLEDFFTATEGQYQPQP
- assayComment: Inhibition of LCK (unknown origin) at 10 uM relative to control
Binary call on inhibition: fulfilled from 80% upward, not fulfilled beneath that.

Completed entries (count: 5):
CS(=O)(=O)c1ccc(-c2ccc3c(NC4CCC4)c(C(N)=O)nnc3c2)cc1    not fulfilled
CC(C)Nc1c(C(N)=O)nnc2cc(N3CCOCC3)ccc12    not fulfilled
CC(C)Nc1c(C(N)=O)cnc2cc(-c3ccc(S(C)(=O)=O)cc3)ccc12    not fulfilled
CC(C)Nc1c(C(N)=O)nnc2ccc(-c3cn[nH]c3)cc12    fulfilled
CC(C)Nc1c(C(N)=O)nnc2cc(-c3ccncc3)ccc12    fulfilled

Please check the record `CC(C)Nc1c(C(N)=O)nnc2ccc(-c3ccncc3)cc12` and state if its inhibition is at or above 80%.
fulfilled

====

- experimentalSystem: Serine/threonine-protein kinase MARK2 (Homo sapiens)
- assayComment: Inhibition of MARK2 (unknown origin) at 10 uM relative to control
Below, each entry is listed alongside its reported inhibition.
Note: unit % is implicit; provide only the numeric part.

Example results:
CC(C)Nc1c(C(N)=O)nnc2cc(-c3ccncc3)ccc12    95
CC(C)Nc1c(C(N)=O)nnc2cc(N3CCOCC3)ccc12    81
C[C@@H](Nc1c(C(N)=O)nnc2cc(-c3ccc(S(C)(=O)=O)cc3)ccc12)C1CC1    80
CS(=O)(=O)c1ccc(-c2ccc3c(NC4CCC4)c(C(N)=O)nnc3c2)cc1    53
CC(C)Nc1c(C(N)=O)cnc2cc(-c3ccc(S(C)(=O)=O)cc3)ccc12    94

Requested field: inhibition. Item: `CC(C)Nc1c(C(N)=O)nnc2ccc(-c3ccncc3)cc12`
88

Fill in the blank: the reported inhibition of `CC(C)Nc1c(C(N)=O)nnc2ccc(-c3cn[nH]c3)cc12` is ____.
87
